Target: purified PARP protein (Homo sapiens, UniProt P09874)
Sequence (P09874 whole entry): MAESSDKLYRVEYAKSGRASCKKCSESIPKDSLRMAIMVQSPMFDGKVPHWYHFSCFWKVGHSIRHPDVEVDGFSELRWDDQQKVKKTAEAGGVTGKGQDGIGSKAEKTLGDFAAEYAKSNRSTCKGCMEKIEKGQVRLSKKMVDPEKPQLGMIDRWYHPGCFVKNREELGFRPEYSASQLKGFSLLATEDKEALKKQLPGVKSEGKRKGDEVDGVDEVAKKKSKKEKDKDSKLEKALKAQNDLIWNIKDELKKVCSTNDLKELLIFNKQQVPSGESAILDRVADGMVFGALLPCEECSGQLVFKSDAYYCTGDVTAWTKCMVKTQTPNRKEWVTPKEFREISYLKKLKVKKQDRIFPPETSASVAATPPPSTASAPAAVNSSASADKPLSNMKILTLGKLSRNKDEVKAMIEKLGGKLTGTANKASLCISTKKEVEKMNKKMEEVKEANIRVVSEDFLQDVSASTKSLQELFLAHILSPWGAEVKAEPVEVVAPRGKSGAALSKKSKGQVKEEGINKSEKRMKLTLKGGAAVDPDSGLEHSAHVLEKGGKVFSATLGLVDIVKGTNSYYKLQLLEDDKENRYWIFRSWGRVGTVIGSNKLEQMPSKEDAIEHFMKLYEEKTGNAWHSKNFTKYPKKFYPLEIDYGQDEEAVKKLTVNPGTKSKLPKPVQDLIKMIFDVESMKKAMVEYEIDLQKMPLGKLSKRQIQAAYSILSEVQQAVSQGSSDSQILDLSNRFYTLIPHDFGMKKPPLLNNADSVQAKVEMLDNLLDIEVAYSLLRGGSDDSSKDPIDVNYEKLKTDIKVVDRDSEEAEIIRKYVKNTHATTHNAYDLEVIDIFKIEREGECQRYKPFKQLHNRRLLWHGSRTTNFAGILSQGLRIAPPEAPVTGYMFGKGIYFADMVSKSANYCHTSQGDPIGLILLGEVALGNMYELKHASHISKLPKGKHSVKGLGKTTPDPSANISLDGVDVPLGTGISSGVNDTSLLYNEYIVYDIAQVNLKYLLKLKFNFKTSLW
Assay: PARP enzyme inhibition assay
Format: biochemical
Conditions: 20 nM purified PARP (5 nM for tight-binding inhibitors), 500 μM NAD+, 25° C.; several values in one cell = repeat determinations; read-out: Inhibition Constant Ki
parameter: pKi
Give bare numbers, as −log10 of the molar value.

Example cases with answers are listed next.
# molecule, tested.system, number
data = [
    ("COc1ccc(C2CNC(=O)c3cccc4[nH]c(=O)n2c34)cc1 (racemic) [Example 53]", "purified PARP protein (Homo sapiens, UniProt P09874)", 5.74),
    ("CC1CCCN1Cc1ccc(-c2nc3cccc4c3n2CCNC4=O)cc1 (centres unmarked) [Example 212]", "purified PARP protein (Homo sapiens, UniProt P09874)", 8.17),
]

List reported pKi for each of these molecules:
1. O=C1NCCn2c(O)nc3cccc1c32 [Example 26]
2. O=C1NCCn2c(-c3cccc(Cc4ccccc4)c3)nc3cccc1c32 [Example 67]
3. CSc1nc2cccc3c2n1CCNC3=O [Example 138]
4. CC(C)CC(c1ccc(-c2nc3cccc4c3n2CCNC4=O)cc1)N1CCCC1 (centres unmarked) [Example 230]

Result:
1. 6.99
2. 8.03
3. 7.96
4. 8.28
